TESTED ON: T1, Mouse MuSK as it stands on mouse muscle (neuromuscular junctions, C2C12 myotubes) (mouse, UniProt Q61006 22-868)
T1 sequence (looked up): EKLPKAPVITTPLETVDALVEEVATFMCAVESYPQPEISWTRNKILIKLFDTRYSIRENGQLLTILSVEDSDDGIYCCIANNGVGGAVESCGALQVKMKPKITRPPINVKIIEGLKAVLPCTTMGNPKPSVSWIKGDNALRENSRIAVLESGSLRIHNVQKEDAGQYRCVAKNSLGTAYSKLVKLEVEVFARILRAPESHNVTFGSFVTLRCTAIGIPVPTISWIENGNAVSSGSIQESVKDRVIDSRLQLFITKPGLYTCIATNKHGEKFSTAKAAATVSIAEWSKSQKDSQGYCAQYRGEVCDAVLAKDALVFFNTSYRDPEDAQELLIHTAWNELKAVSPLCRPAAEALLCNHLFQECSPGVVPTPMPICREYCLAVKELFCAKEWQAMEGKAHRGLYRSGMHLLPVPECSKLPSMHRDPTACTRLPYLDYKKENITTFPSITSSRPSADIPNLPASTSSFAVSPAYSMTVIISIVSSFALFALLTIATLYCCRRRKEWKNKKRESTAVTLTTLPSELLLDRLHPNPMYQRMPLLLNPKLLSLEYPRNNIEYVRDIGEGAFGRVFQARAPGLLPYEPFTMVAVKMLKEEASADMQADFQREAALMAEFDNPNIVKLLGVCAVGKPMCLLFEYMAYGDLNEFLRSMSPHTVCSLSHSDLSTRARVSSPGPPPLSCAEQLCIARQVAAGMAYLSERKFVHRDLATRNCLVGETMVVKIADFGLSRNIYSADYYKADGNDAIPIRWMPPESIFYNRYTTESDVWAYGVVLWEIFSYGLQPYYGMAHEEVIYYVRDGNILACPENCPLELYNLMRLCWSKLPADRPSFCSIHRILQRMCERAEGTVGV
METHOD DESCRIPTION: cell-based or functional assay
VALUE TYPE: AChR clusters larger or equal to 3 µm compared to agrin; antibody 11 µg/mL

{"columns": ["BINDER", "ASSAY VALUE"],
 "data": [
  ["3F6c (antibody, human IgG1, kappa, L234A L235A, V domains shown) VH: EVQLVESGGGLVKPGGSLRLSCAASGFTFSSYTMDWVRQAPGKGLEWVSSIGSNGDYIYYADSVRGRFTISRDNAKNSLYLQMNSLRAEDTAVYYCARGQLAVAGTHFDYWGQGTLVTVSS VL: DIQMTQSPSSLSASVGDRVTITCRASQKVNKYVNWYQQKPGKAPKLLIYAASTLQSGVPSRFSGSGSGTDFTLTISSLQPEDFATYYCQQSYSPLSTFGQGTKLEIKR", "62 % of agrin"],
  ["3D10a (antibody, human IgG1, kappa, L234A L235A, V domains shown) VH: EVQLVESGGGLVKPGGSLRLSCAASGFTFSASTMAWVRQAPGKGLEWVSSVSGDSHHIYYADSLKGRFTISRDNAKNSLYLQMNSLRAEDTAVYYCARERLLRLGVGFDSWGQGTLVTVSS VL: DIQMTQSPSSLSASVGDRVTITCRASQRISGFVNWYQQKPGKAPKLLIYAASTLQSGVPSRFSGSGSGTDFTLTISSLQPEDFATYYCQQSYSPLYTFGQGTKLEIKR", "76 % of agrin"],
  ["4D3 (antibody, human IgG1, kappa, L234A L235A, V domains shown) VH: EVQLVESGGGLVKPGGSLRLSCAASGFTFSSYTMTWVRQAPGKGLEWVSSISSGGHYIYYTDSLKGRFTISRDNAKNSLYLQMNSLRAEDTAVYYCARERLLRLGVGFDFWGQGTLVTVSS VL: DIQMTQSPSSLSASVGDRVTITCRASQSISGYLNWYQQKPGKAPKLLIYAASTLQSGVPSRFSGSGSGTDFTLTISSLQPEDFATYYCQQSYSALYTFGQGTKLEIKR", "80 % of agrin"],
  ["3D9b (antibody, human IgG1, kappa, L234A L235A, V domains shown) VH: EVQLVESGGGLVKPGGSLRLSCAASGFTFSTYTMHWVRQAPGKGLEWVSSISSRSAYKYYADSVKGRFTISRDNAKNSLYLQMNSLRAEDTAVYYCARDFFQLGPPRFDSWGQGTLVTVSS VL: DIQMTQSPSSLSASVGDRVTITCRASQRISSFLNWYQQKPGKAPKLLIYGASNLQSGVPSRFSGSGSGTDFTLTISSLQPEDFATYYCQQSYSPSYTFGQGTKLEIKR", "93 % of agrin"]
]}
